Assay: in vitro
Conditions: human, Caco-2, pH 7.4
observable: Papp B→A at 2 h, 5 μM (×10⁻⁶ cm/s)

1. Nc1cc(-c2c(-c3ccc(F)cc3)nn3c2CCC3)ccn1 [Compound 1-57] | 17.3
2. CN1CCn2nc(-c3ccc(F)cc3)c(-c3ccnc(N)c3)c2C1 [Compound 1-59] | 23.9
3. CC(=O)N1CCn2nc(-c3ccc(F)cc3)c(-c3ccnc(N)c3)c2C1 [Compound 1-50] | 30.8

----------
Assay: in vitro
Conditions: human, Caco-2, pH 7.4
observable: efflux ratio at 2 h, 5 μM

1) Nc1cc(-c2c(-c3ccc(F)cc3)nn3c2CCC3)ccn1 | 0.9
2) CC(=O)N1CCn2nc(-c3ccc(F)cc3)c(-c3ccnc(N)c3)c2C1 | 3.6
3) CN1CCn2nc(-c3ccc(F)cc3)c(-c3ccnc(N)c3)c2C1 | 1.05
4) CC(C)NCC(O)COc1cccc2ccccc12 (centres unmarked) [Propranolol, reference compound] | 0.51
5) C[C@H]1O[C@@H](O[C@H]2[C@@H](O)C[C@H](O[C@H]3[C@@H](O)C[C@H](O[C@H]4CC[C@@]5(C)[C@H](CC[C@@H]6[C@@H]5C[C@@H](O)[C@]5(C)[C@@H](C7=CC(=O)OC7)CC[C@]65O)C4)O[C@@H]3C)O[C@@H]2C)C[C@H](O)[C@@H]1O [Digoxin, reference compound] | 56.5

Attribution: patent US20230192699A1
